Listed compounds paired with reported melting point

# compound, melting point
records = [
    ("O=C=Nc1cccc(COc2ccccc2)c1", "51 to 53 °C"),
    ("CC(CC(=O)O)c1ccc(C(=O)O)cc1 (centres undefined)", "227 to 229 °C"),
    ("O=Cc1ccc2[nH]cnc2c1", "159 to 161 °C"),
    ("CNCc1ccc(N2CCN(C(=O)OC(C)(C)C)CC2)cc1", "60 to 62 °C"),
    ("O=C(O)c1ccc(O)cc1Cl", "207 to 209 °C"),
    ("FC(F)(F)c1cc(Br)c2nc[nH]c2c1", "218 to 220 °C"),
    ("CCOC(=O)c1cccc(Oc2cncc(C)n2)c1", "50.5 to 51.5 °C"),
    ("C=CCn1c(S)nnc1-c1ccc2ncccc2c1", "211 to 214 °C"),
    ("O=C(Nc1ccc(F)cc1)c1c(O)c(F)c(F)c(F)c1F", "130 °C"),
    ("CCOC(=O)C(=NNc1ccccc1[N+](=O)[O-])C(C)=O", "73 to 74 °C"),
    ("OCc1ccc2occc2c1", "35 to 36 °C"),
    ("Cc1ccc2nc(C(F)(F)F)cc(Cl)c2c1[N+](=O)[O-]", "119 to 121 °C"),
    ("CC(C)(C)c1cc(C(C)(C)C)c(O)c(C(C)(C)C)c1", "131 °C"),
    ("CC(C)(c1ccc(OC(=O)Cl)cc1)c1ccc(OC(=O)Cl)cc1", "90 to 95 °C"),
]

====

Listed compounds paired with reported melting point

# entry-smiles, melting point
measured = [
    ("O=C(Cl)c1ccc2nonc2c1", "55 to 58 °C"),
    ("COc1ccc(C(=O)c2cccc(C)c2)cc1C", "62.3 °C"),
    ("CCOC(=O)c1cnc2c(c(C)nn2C)c1Oc1cc(Cl)cc(Cl)c1", "115 to 117 °C"),
    ("COc1ccc(CCNc2ccccc2N)cc1OC", "78 to 80 °C"),
]

====

# entry-smiles, melting point
data = [
    ("NC(=O)NC12CC3CC(CC(C3)C1)C2", "250 °C"),
    ("Nc1ncc(S(=O)(=O)c2ccc([N+](=O)[O-])cc2)s1", "222 to 226 °C"),
    ("COc1ccc2nonc2c1", "99 to 102 °C"),
    ("COC(=O)c1sc(SC)c(S(=O)(=O)C(C)C)c1N", "151 to 155 °C"),
]

====

// map melting point onto a label; ranges group 1 (below 100 °C), group 2 (100 °C to below 200 °C), group 3 (200 °C or more)

# compound, label-value
measured = [
    ("Cc1ccc(F)c(O)c1Cl", "group 1"),
    ("Nc1ccccc1-c1cccnc1", "group 1"),
    ("O=[N+]([O-])c1ccc(C=NNc2ccccc2)cc1", "group 2"),
    ("CCC(=NNc1cccc(NN=C(CC)C(=O)O)c1)C(=O)O", "group 2"),
    ("Cc1ccc(S(=O)(=O)OCC2OC(C)(C)OC2COS(=O)(=O)c2ccc(C)cc2)cc1 (stereo not drawn)", "group 1"),
    ("NC(=O)CCCCC1CCSS1 (stereo not drawn)", "group 2"),
    ("COc1cc(C(=O)c2ccc(Cl)cc2)cc(OC)c1OCCN1CCOCC1", "group 1"),
    ("CCCCNc1cc(C(=O)O)cc(S(N)(=O)=O)c1Oc1ccccc1", "group 3"),
    ("CS(=O)(=O)c1ccc(C(=O)C2C(=O)CCCC2=O)c(Cl)c1", "group 2"),
    ("O=C(CS(=O)C(c1ccccc1)c1ccccc1)NO (stereo not drawn)", "group 2"),
    ("CC(=O)Oc1cc(C(C)C)c(OCCN(C)C)cc1C", "group 2"),
    ("Oc1cccc2c1CCCC2", "group 1"),
    ("COc1ccc(N(CCCC(=O)O)C(=O)c2ccc(Cl)cc2)cc1", "group 2"),
    ("O=C1/C(=N/Nc2ccncc2)C(C(F)(F)F)=NN1c1ccccc1", "group 2"),
    ("CC12CCC(O)CC1CCC1C2C(O)CC2(C)C(C3=CC(=O)OC3)CCC12O (stereo not drawn)", "group 3"),
    ("O=C(O)CN=C(S)C(=S)NCC(=O)O", "group 3"),
    ("CC(C)NCC(O)COc1ccc(CCOCC2CC2)cc1 (stereo not drawn)", "group 1"),
]

====

Listed compounds paired with reported melting point

# compound, melting point
data = [
    ("CC1(C)C(=S)NC(c2ccccc2)N1O (stereo unspecified)", "193 to 195 °C"),
    ("Cc1cc(NC(=O)C=CC(=O)O)no1", "165 to 172 °C"),
    ("CC(C)(C)OC(=O)n1cc(C(=O)O)c2c(Br)cccc21", "149 to 150 °C"),
    ("CC(C)N(C(=O)Cl)C(C)C", "55 to 60 °C"),
    ("CCOC(=O)c1c(N)sc2c1CCCCC2", "89 to 90 °C"),
    ("CC(=O)Nc1ccccc1/C=C\\c1ccccc1", "115 to 117 °C"),
]

====

Listed compounds paired with reported melting point
quantity: melting point

# compound, quantity, observed-measurement
rows = [
    ("CC12CCC3C(C(=O)CC4CC(O)CCC43C)C1CCC2O (centres undefined)", "melting point", "198 °C"),
    ("C[C@]12CCC(=O)C[C@H]1CC[C@@H]1[C@@H]2CC[C@]2(C)CCC[C@@]12O", "melting point", "139 to 140 °C"),
    ("O=C(c1ccc(F)cc1)N1CCCCC1", "melting point", "60 to 62 °C"),
    ("O=C(O)C=Cc1ccccc1C(=O)O", "melting point", "197 to 202 °C"),
]

====

# compound, melting point
data = [
    ("CSc1nc(=O)n(C2CCCCC2)c2c1CCC2", "192 to 194 °C"),
    ("COC(=O)c1cc(I)cc(C(=O)OC)c1", "105 to 107 °C"),
    ("O=C(O)c1ccc(C#Cc2ccccc2)o1", "212 to 213 °C"),
    ("CC1OC(Oc2c[nH]c3ccc(Br)c(Cl)c23)C(O)C(O)C1O (stereo unspecified)", "213 to 217 °C"),
    ("O=C(Nc1cccc(Cl)c1)Nc1nnc(-c2ccc(Cl)cc2)o1", "246 to 247 °C"),
    ("Nc1nnc(-c2ccc([N+](=O)[O-])cc2)s1", "202 to 204 °C"),
    ("CC(=O)c1cc(Br)ccc1O", "58 to 61 °C"),
    ("Fc1cc(I)ccc1Br", "36 to 41 °C"),
    ("c1ccc(CNc2ccccc2-n2c(-c3ccccc3)nc3ccccc32)cc1", "160 °C"),
    ("C1CN(SSN2CCOCC2)CCO1", "124 °C"),
    ("Cc1nc(/C(C#N)=N/Nc2ccccc2Cl)sc1/N=N/c1ccc(Br)cc1", "241 °C"),
]

====

Listed compounds paired with reported melting point
quantity: melting point

# entry-smiles, observed-measurement
measured = [
    ("[O-][N+](=Nc1ccccc1)c1ccc(N=Nc2ccc([N+]([O-])=Nc3ccccc3)cc2)cc1", "138 to 139 °C"),
    ("CCCC(=O)c1ccc(N)cc1", "94 to 95 °C"),
    ("O=C(N=C=S)c1ccc(Cl)cc1", "45 to 46 °C"),
]

====

Listed compounds paired with reported melting point

# compound, melting point
rows = [
    ("CCOC(=O)C(N)=O", "112 to 115 °C"),
    ("O=C(CCCl)N1CCc2ccccc21", "83 to 85 °C"),
    ("S=c1cn[nH]c(=S)[nH]1", "209 to 210 °C"),
    ("Cc1ccc(C(=O)OC2CC(C#N)OC2OC(=O)c2ccc(C)cc2)cc1 (stereo unspecified)", "110 to 111 °C"),
    ("CCC1(C2CCC(OC)CC2)C(=O)NC(=O)NC1=O (stereo unspecified)", "239 to 240 °C"),
    ("CC(=O)c1csc([N+](=O)[O-])c1", "59 to 61 °C"),
]

====

// map melting point onto a label; ranges bottom bin: < 40 °C; middle bin: ≥ 40 °C and < 200 °C; top bin: ≥ 200 °C

# molecule, label-value
data = [
    ("C=CC(=O)OCCN(CC)CC", "bottom bin"),
    ("CC(=O)CC(C)=O", "bottom bin"),
    ("c1ccc(Cc2ccc3c4ccccc4c4ccccc4c3c2Cc2ccccc2)cc1", "middle bin"),
    ("Clc1ccc2ncccc2c1", "middle bin"),
    ("OC(CCN1CCCC1)(c1ccccc1)C1CCCCC1 (stereo unspecified)", "middle bin"),
    ("Nc1c(Br)cc(Br)c(Cl)c1Cl", "middle bin"),
    ("FC(F)(F)c1ccc(I)cc1", "bottom bin"),
    ("c1ccc(CCc2ccccn2)cc1", "bottom bin"),
    ("CC(C)=C1C(=O)NN(c2ccccc2)C1=O", "middle bin"),
    ("Cn1c(=O)c(C2=NNC(=O)C2=CNc2cccnc2)c(O)c2ccccc21", "top bin"),
    ("Nc1nccnn1", "middle bin"),
    ("CC1=C(CCO)SC2=Nc3nc(C)ncc3CN21", "top bin"),
    ("O=C(Nc1ccccc1)c1cccnc1", "middle bin"),
    ("CC(Cl)C(=O)Cl (stereo unspecified)", "bottom bin"),
    ("CC(=O)OC1CC2C3CCC(C(C)CCCC(C)C)C3(C)CCC2C2(C)CCC(O)CC12O (stereo unspecified)", "middle bin"),
    ("O=Cc1cccc([N+](=O)[O-])c1O", "middle bin"),
    ("CC(C)Nc1nc(Cl)nc(NC(C)C)n1", "top bin"),
]
